- Tested on: human plasma rich in platelet
- Assay remarks: Platelet coagulation-inhibitory activity in vitro, transmittance by aggregometer
- Assay type: cell-based
- Cond: collagen stimulation (200 μg/ml collagen solution), 37° C., 3 minutes preincubation
No end group written: not given here. succinylated CM‑chitin = succinylated carboxymethyl-chitin (CM-chitin), conjugated to the peptide; sulfated CM‑chitin = sulfated carboxymethyl-chitin (CM-chitin), conjugated to the peptide; sulfated succinylated CM‑chitin = sulfated succinylated CM-chitin; trimellityl CM‑chitin = trimellityl derivative of CM-chitin; succinylated CM‑Chitin = succinylated CM-chitin; CM‑Chitin = carboxymethyl chitin
Listing: Platelet Coagulation-Inhibitory Action IC50, Collagen Stimulation of selected substances
Measurement kind: Platelet Coagulation-Inhibitory Action IC50, Collagen Stimulation (µg/mL)

1. Sulfated CM-Chitin-Arg-Gly-Asp-Ser ({sulfated CM‑chitin}-RGDS) [CM--chitin derivative-13]: 7
2. Succinylated CM-Chitin-(Arg-Gly-Asp)3 ({succinylated CM‑Chitin}-RGDRGDRGD) [CM--chitin derivative-11]: 12
3. Succinylated CM-Chitin-Arg-Gly-Asp-Ser ({succinylated CM‑chitin}-RGDS) [CM--chitin derivative-2]: 10
4. CM-Chitin-Arg-Gly-Asp-Ser ({CM‑Chitin}-RGDS) [CM--chitin derivative-1, rate of introduction of Arg-Gly-Asp-Ser fragments about 10%]: 10
5. Trimellityl Derivative of CM-Chitin Arg-Gly-Asp-Ser ({trimellityl CM‑chitin}-RGDS) [CM--chitin derivative-6]: 11
6. CM-Chitin-Gly-Arg-Gly-Asp-Ser-Pro [CM--chitin derivative-19]: 5
7. Succinylated CM-Chitin-(Arg-Gly-Asp)5 ({succinylated CM‑Chitin}-RGDRGDRGDRGDRGD) [CM--chitin derivative-12]: 8
8. CM-chitin-Arg-Gly-Asp-Ser-Gly-NH2 ({CM‑Chitin}-RGDSG-NH2; also: conjugated to CM-chitin) [CM--chitin derivative-17]: 5
9. Sulfated CM-Chitin-Gly-Arg-Gly-Asp-Ser ({sulfated CM‑chitin}-GRGDS) [CM--chitin derivative-14]: 3
10. Succinylated CM-Chitin-(Arg-Gly-Asp)2 ({succinylated CM‑Chitin}-RGDRGD) [CM--chitin derivative-10]: 13
11. Succinylated CM-Chitin Gly-Arg-Gly-Asp-Ser (GRGDS; also: conjugated to succinylated CM-chitin) [CM--chitin derivative-8]: 14
12. Itaconyl Derivative of CM-Chitin Arg-Gly-Asp-Ser (RGDS; also: conjugated to itaconyl CM-chitin) [CM--chitin derivative-5]: 12
13. Sulfated Succinylated CM-Chitin-Arg-Gly-Asp-Ser ({sulfated succinylated CM‑chitin}-RGDS) [CM--chitin derivative-15]: 6
14. CM-Chitin Gly-Arg-Gly-Asp-Ser (GRGDS; also: conjugated to CM-chitin) [CM--chitin derivative-7]: 16
15. Sulfated Succinylated CM-Chitin-Gly-Arg-Gly-Asp-Ser ({sulfated succinylated CM‑chitin}-GRGDS) [CM--chitin derivative-16]: 2
16. CM-Chitin Arg-Gly-Asp-Ser (RGDS; also: conjugated to CM-chitin) [CM--chitin derivative-18]: 10
17. Phthaloyl derivative of CM-Chitin Arg-Gly-Asp-Ser (RGDS; also: conjugated to phthaloyl CM-chitin) [CM--chitin derivative-4]: 15
18. Maleyl Derivative of CM-Chitin Arg-Gly-Asp-Ser (RGDS; also: conjugated to maleyl CM-chitin) [CM--chitin derivative-3]: 7

====

Listing: Cell Adhesion-Inhibitory effect Against Fibronectin (number of adhered cells) of selected substances
- Test system: fibronectin
- Assay remarks: Cell adhesion-inhibitory test against fibronectin (competitive assay, number of adhered cells)
- Format: cell-based, human
- Cond: concentration 1.5 mg/ml; endothelium cells of blood vessel; 37° C., one hour; 0 mg/ml control 160
No end group written: not given here. succinylated CM‑Chitin = succinylated CM-chitin; CM‑Chitin = carboxymethyl chitin
Measurement kind: Cell Adhesion-Inhibitory effect Against Fibronectin (number of adhered cells) (cell/well)

1. Itaconyl Derivative of CM-Chitin Arg-Gly-Asp-Ser (RGDS; also: conjugated to itaconyl CM-chitin) [CM--chitin derivative-5]: 72
2. Succinylated CM-Chitin-(Arg-Gly-Asp)3 ({succinylated CM‑Chitin}-RGDRGDRGD) [CM--chitin derivative-11]: 70
3. CM-Chitin Gly-Arg-Gly-Asp-Ser (GRGDS; also: conjugated to CM-chitin) [CM--chitin derivative-7]: 71
4. CM-Chitin-Arg-Gly-Asp-Ser ({CM‑Chitin}-RGDS) [CM--chitin derivative-1, rate of introduction of Arg-Gly-Asp-Ser fragments about 10%]: 69

====

- Tested on: fibronectin
- Assay remarks: Cell adhesion-inhibitory test against fibronectin (competitive assay, number of adhered cells)
- Assay type: cell-based, human
- Cond: concentration .25 mg/ml; endothelium cells of blood vessel; 37° C., one hour; 0 mg/ml control 160
No end group written: not given here. sulfated succinylated CM‑chitin = sulfated succinylated CM-chitin; trimellityl CM‑chitin = trimellityl derivative of CM-chitin; succinylated CM‑Chitin = succinylated CM-chitin; CM‑Chitin = carboxymethyl chitin
Measurement kind: Cell Adhesion-Inhibitory effect Against Fibronectin (number of adhered cells) (cell/well)

1) CM-Chitin-Arg-Gly-Asp-Ser ({CM‑Chitin}-RGDS) [CM--chitin derivative-1, rate of introduction of Arg-Gly-Asp-Ser fragments about 10%]: 131
2) Succinylated CM-Chitin-(Arg-Gly-Asp)3 ({succinylated CM‑Chitin}-RGDRGDRGD) [CM--chitin derivative-11]: 143
3) Succinylated CM-Chitin Gly-Arg-Gly-Asp-Ser (GRGDS; also: conjugated to succinylated CM-chitin) [CM--chitin derivative-8]: 130
4) Trimellityl Derivative of CM-Chitin Arg-Gly-Asp-Ser ({trimellityl CM‑chitin}-RGDS) [CM--chitin derivative-6]: 127
5) CM-chitin-Arg-Gly-Asp-Ser-Gly-NH2 ({CM‑Chitin}-RGDSG-NH2; also: conjugated to CM-chitin) [CM--chitin derivative-17]: 99
6) Succinylated CM-Chitin-(Arg-Gly-Asp)5 ({succinylated CM‑Chitin}-RGDRGDRGDRGDRGD) [CM--chitin derivative-12]: 125
7) Sulfated Succinylated CM-Chitin-Arg-Gly-Asp-Ser ({sulfated succinylated CM‑chitin}-RGDS) [CM--chitin derivative-15]: 105
8) CM-Chitin Gly-Arg-Gly-Asp-Ser (GRGDS; also: conjugated to CM-chitin) [CM--chitin derivative-7]: 119
